Test system: SF-539
Assay: NCI tumour cell line growth inhibition, 48 h
Calls of active or inactive are those of the source. Cut-off read from the data, not from the text of the source: active = GI50 up to about 1.1 µM and inactive = higher.

{"compound": "C[N+]1(C)C/C(=C\\c2ccncc2)C(=O)/C(=C/c2ccncc2)C1", "GI50": "> 100 µM (inactive)"}
{"compound": "COP(=O)(OC)/C(=C/c1c[nH]c2ccccc12)C(=O)O", "GI50": "> 100 µM (inactive)"}
{"compound": "CC(=O)Nc1ccc(C(O)/C(=N/N)c2nc3ccc(Cl)cc3nc2O)cc1 (stereo unspecified)", "GI50": "> 100 µM (inactive)"}
{"compound": "CCCCCCCCCC/C=C/C=O", "GI50": "> 100 µM (inactive)"}
{"compound": "CC(=O)Oc1c(Br)ccc2cc(C(Br)Br)c(C(=O)c3ccccc3)nc12", "GI50": "18.6 µM (inactive)"}
{"compound": "O=C(Cc1ccccc1)NN1C(=O)/C(=C\\c2ccc(O)cc2)S/C1=N\\c1ccccc1", "GI50": "> 100 µM (inactive)"}
{"compound": "CC(=O)/N=C1\\NC(=O)/C(=C/c2ccc(Cl)cc2Cl)N1C", "GI50": "77.4 µM (inactive)"}
{"compound": "COc1cc(/C=N/c2nc3cc4sc(/N=C/c5cc(OC)c(OC)c(OC)c5)nc4cc3s2)cc(OC)c1OC", "GI50": "17.9 µM (inactive)"}
{"compound": "CCOP(=O)(OCC)C1C(CO)OC(n2ccc(=O)[nH]c2=O)C1O (stereo unspecified)", "GI50": "> 100 µM (inactive)"}
{"compound": "O=C(c1ccccc1)c1ccc2[nH]c(-c3c(Cl)c(Cl)c(Cl)c(Cl)c3-c3nnc(-c4ccccc4)o3)nc2c1", "GI50": "19.4 µM (inactive)"}
{"compound": "COc1ccc(OC)c2c1C=C[C@H](C1(C)SCCS1)C2C(C)=O (stereo partly specified)", "GI50": "23.1 µM (inactive)"}
{"compound": "CC(NNC(=O)c1cc[n+]([BH2-]C#N)cc1)c1ccccc1 (stereo unspecified)", "GI50": "> 100 µM (inactive)"}
{"compound": "CO/C(N)=C(C#N)/N=C/c1cccnc1", "GI50": "> 100 µM (inactive)"}
{"compound": "CCN1CCC(O)(c2ccc(OC)cc2)C(C(=O)c2ccc(OC)cc2)C1 (stereo unspecified)", "GI50": "17 µM (inactive)"}
{"compound": "COc1cc2nc(-c3c(F)cccc3F)n(Cc3c(F)cccc3F)c2cc1Cc1c(F)cccc1F", "GI50": "> 68.7 µM (inactive)"}
{"compound": "C[N+](C)(C)CC(=O)N/N=C(\\Cc1nc2ccc([N+](=O)[O-])cc2nc1O)C(=O)Nc1nc2ccc([N+](=O)[O-])cc2s1", "GI50": "31.8 µM (inactive)"}
{"compound": "CC1=CC(=O)/C(=C/NC(=S)NCCc2ccccc2)C(=O)O1", "GI50": "> 100 µM (inactive)"}
{"compound": "COc1cc2oc(-c3ccc(O)cc3)cc(=O)c2c(O)c1C1OC(CO)C(O)C(O)C1O (stereo unspecified)", "GI50": "> 100 µM (inactive)"}
{"compound": "CC1(C)CCc2cc3c(cc2O1)OCC1c2cc4c(cc2OC31)OCO4 (stereo unspecified)", "GI50": "> 100 µM (inactive)"}
{"compound": "C=C(C)C12CC(COC(=O)c3ccccc3)C34OC5(OC1C3C1OC1(CO)C(O)C1(O)C(OC(=O)c3ccccc3)C(C)C(C(C)CCCCCCC5O)C14)O2 (stereo unspecified)", "GI50": "> 70.3 µM (inactive)"}
{"compound": "CCc1cccc(C)c1NC(=O)CC1Sc2ccccc2NC1=O (stereo unspecified)", "GI50": "31.9 µM (inactive)"}
{"compound": "CC(C)(C)C#CI1OC(=O)c2ccccc21", "GI50": "2.82 µM (inactive)"}
{"compound": "CCC1CCc2c(OC)ccc(OCC(=O)O)c2C1=O (stereo unspecified)", "GI50": "> 100 µM (inactive)"}
{"compound": "COP(=O)(OC)C(Nc1ccc(Cc2ccc(NC(c3ccco3)P(=O)(OC)OC)cc2)cc1)c1ccco1 (stereo unspecified)", "GI50": "4.79 µM (inactive)"}
{"compound": "COc1cc(OC2OC(COC(=O)c3cc(O)c(O)c(O)c3)C(O)C(O)C2O)ccc1O (stereo unspecified)", "GI50": "> 100 µM (inactive)"}
{"compound": "C/C(=N/O)c1sc(-c2nc(C)c(/C(C)=N\\O)s2)nc1C", "GI50": "> 100 µM (inactive)"}
{"compound": "O=C(CCC=C(S(=O)(=O)c1ccccc1)S(=O)(=O)c1ccccc1)c1ccccc1", "GI50": "2.96 µM (inactive)"}
{"compound": "CNS(=O)(=O)NNS(=O)(=O)c1ccc(Cl)cc1", "GI50": "> 100 µM (inactive)"}
{"compound": "CCOC(=O)c1c(C(F)(F)F)oc2c1ccc1nc3nonc3nc12", "GI50": "16.2 µM (inactive)"}
{"compound": "OC1CSCCSCCCSCCSC1", "GI50": "> 100 µM (inactive)"}
{"compound": "C/C(=N\\NC(=N)N)C(CN(C)C)C(c1ccccc1)c1c(O)c2ccccc2oc1=O (stereo unspecified)", "GI50": "> 100 µM (inactive)"}

Cited source: ChEMBL document CHEMBL1201862
